Assignment: determine reported ADP-induced depolarization (ΔΨ in - mV) for the given molecules.
- System: rat liver mitochondria (RLM)
- assay-notes: Mitochondrial transmembrane electric potential (ΔΨ) of RLM, safranine fluorescence
- Type: biochemical
- settings: succinate; 2.5 μM
Numbers only, in mV.

Below: 2 molecules and their reported ADP-induced depolarization (ΔΨ in - mV).
molecule="CS(=O)(=O)[O-].O=C(/C=C/c1ccc(O)c(O)c1)NCCCCCC[P+](c1ccccc1)(c1ccccc1)c1ccccc1 [AntiOxCIN2]" tested_system="rat liver mitochondria (RLM)" readout="ADP-induced depolarization (ΔΨ in - mV)" value_reported=169.3
molecule="CS(=O)(=O)[O-].O=C(/C=C/c1ccc(O)c(O)c1)NCCCCCCCCCC[P+](c1ccccc1)(c1ccccc1)c1ccccc1 [AntiOxCIN6]" tested_system="rat liver mitochondria (RLM)" readout="ADP-induced depolarization (ΔΨ in - mV)" value_reported=166.8

The record that follows has no ADP-induced depolarization (ΔΨ in - mV) shown yet.
// query Entry CS(=O)(=O)[O-].O=C(/C=C/c1cc(O)c(O)c(O)c1)NCCCCCCCCCC[P+](c1ccccc1)(c1ccccc1)c1ccccc1 [AntiOxCIN7] : reported ADP-induced depolarization (ΔΨ in - mV) = ?
// result 183.8
